- Test system: SGC-7901
- Measurement description: Cytotoxicity against human SGC7901 cells after 72 hrs by MTT assay
- Assay type: functional, cell-based
- Setup conditions: SGC-7901, 72 h
Assay metric: IC50 (µM)
Field: numeric (µM). Do not append units.

# count of solved cases: 10
Structure smiles string | Scale unit | Endpoint value
COc1ccc(-c2coc3cc(OCCc4ccccc4)ccc3c2=O)cc1N(CCCl)CCCl | µM | 11
CCCCOc1ccc2c(=O)c(-c3ccc(OC)c(N(CCCl)CCCl)c3)coc2c1 | µM | 11.8
COc1ccc(-c2coc3cc(OCc4ccc(C)cc4)ccc3c2=O)cc1N(CCCl)CCCl | µM | 7.73
COc1ccc(-c2coc3cc(O)ccc3c2=O)cc1N(CCCl)CCCl | µM | 8.2
COc1ccc(-c2coc3cc(OC4CCCCC4)ccc3c2=O)cc1N(CCCl)CCCl | µM | 15.8
COc1ccc(-c2coc3cc(OCC=C(C)C)ccc3c2=O)cc1N(CCCl)CCCl | µM | 19.8
C=C(C)COc1ccc2c(=O)c(-c3ccc(OC)c(N(CCCl)CCCl)c3)coc2c1 | µM | 15.4
COc1ccc(-c2coc3cc(OC(C)C)ccc3c2=O)cc1N(CCCl)CCCl | µM | 9.21
N[C@@H](Cc1ccc(N(CCCl)CCCl)cc1)C(=O)O | µM | 51
C=CCOc1ccc2c(=O)c(-c3ccc(OC)c(N(CCCl)CCCl)c3)coc2c1 | µM | 10.2

Incoming: State its IC50 for this compound: COc1ccc(-c2coc3cc(O)ccc3c2=O)cc1
Outgoing: 2.17

Incoming: Respond only with IC50 recorded for COc1ccc(-c2coc3cc(OCc4ccccc4)ccc3c2=O)cc1N(CCCl)CCCl
Outgoing: 18.8
